target under test: Polyamine deacetylase HDAC10 (Homo sapiens, UniProt Q969S8)
Sequence (Q969S8 whole entry): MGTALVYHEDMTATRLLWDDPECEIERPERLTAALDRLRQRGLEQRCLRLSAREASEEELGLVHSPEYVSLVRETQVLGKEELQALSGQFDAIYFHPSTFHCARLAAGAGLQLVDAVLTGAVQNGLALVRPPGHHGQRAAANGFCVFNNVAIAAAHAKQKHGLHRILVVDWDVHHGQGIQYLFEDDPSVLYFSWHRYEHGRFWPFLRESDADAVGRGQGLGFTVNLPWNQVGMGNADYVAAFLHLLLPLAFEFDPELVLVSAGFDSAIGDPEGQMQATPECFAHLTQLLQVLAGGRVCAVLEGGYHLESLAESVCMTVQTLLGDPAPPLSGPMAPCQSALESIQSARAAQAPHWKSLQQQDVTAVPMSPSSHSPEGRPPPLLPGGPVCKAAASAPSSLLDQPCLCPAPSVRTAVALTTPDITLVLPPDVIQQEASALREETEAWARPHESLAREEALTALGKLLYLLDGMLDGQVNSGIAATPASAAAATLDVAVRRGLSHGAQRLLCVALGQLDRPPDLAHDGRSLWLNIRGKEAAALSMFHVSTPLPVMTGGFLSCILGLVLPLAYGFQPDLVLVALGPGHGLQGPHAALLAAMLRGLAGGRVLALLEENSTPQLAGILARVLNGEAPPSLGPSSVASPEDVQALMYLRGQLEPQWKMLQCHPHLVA
property: pIC50
Give bare numbers, as −log10 of the molar value.

### Prompt State the recorded pIC50 for this entry: Nc1ccc(F)cc1NC(=O)c1ccc(CNC(=O)/C=C/c2cccnc2)cc1
### Response 7.11

====

target under test: Induced myeloid leukemia cell differentiation protein Mcl-1 (Homo sapiens, UniProt Q07820)
Sequence (Q07820 whole entry): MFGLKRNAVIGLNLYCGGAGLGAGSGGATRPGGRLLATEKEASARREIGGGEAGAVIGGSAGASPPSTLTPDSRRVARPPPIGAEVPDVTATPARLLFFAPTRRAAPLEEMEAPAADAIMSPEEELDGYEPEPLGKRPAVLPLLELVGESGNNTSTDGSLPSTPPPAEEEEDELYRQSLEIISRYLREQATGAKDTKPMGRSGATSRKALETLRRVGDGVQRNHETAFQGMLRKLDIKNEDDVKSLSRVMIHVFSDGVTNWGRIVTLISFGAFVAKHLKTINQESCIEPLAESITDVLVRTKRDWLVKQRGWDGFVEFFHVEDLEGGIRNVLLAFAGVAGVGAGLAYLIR
assay name: Inhibition of MCL1 (unknown origin)
property: Ki

### Prompt State the recorded Ki for this entry: Cc1cc(OCCCc2c(C(=O)NS(=O)(=O)c3ccc(C(=O)NCc4ccccc4)o3)[nH]c3c(-c4c(C)n[nH]c4C)c(Cl)ccc23)cc(C)c1Cl
### Response 2.4 nM

====

target under test: UniProtKB Q92769
Sequence (Q92769 whole entry): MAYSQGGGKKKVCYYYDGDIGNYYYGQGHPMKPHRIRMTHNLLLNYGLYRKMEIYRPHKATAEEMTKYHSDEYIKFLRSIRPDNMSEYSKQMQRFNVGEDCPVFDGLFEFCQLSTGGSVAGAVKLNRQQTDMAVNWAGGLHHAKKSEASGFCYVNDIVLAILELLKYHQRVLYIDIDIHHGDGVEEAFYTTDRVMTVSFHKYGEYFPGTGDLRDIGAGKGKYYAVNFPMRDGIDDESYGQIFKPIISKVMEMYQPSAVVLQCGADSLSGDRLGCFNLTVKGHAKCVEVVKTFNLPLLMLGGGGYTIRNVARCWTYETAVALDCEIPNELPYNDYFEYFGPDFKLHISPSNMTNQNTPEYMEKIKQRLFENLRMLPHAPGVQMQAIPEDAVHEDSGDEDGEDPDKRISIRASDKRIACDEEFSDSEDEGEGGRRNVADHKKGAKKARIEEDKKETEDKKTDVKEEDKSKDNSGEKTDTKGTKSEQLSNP
property: pIC50
Answers are plain numbers, as −log10 of the molar value.

### Prompt Return pIC50 measured with UniProtKB Q92769 given this compound: Nc1ccc(F)cc1NC(=O)c1ccc(CNC(=O)/C=C/c2cccnc2)cc1
### Response 6.80

====

target under test: Histone deacetylase 8 (Homo sapiens)
Sequence (Q9BY41 whole entry): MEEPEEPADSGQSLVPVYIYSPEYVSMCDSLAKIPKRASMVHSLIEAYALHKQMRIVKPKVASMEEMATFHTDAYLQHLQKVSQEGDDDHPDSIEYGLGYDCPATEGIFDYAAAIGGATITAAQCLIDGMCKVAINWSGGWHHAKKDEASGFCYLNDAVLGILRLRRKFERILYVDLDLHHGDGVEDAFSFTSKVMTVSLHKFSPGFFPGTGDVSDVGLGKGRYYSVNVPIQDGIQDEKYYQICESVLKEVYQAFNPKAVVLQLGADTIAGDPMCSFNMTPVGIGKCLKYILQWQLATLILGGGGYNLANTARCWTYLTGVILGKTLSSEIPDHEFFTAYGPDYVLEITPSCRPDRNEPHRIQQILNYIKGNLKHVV
property: pIC50
One number for each entry, as −log10 of the molar value.

### Prompt Return pIC50 measured with Histone deacetylase 8 (Homo sapiens) given this molecule: COc1ccc2[nH]cc(Cn3cc(COc4ccc(/C=C/C(=O)NO)cc4OC)nn3)c2c1
### Response 6.42

====

target under test: Histone deacetylase 3/Nuclear receptor corepressor 2 (HDAC3/NCoR2) (Homo sapiens, UniProt O15379)
Sequence (O15379 whole entry, the tested form may be a part): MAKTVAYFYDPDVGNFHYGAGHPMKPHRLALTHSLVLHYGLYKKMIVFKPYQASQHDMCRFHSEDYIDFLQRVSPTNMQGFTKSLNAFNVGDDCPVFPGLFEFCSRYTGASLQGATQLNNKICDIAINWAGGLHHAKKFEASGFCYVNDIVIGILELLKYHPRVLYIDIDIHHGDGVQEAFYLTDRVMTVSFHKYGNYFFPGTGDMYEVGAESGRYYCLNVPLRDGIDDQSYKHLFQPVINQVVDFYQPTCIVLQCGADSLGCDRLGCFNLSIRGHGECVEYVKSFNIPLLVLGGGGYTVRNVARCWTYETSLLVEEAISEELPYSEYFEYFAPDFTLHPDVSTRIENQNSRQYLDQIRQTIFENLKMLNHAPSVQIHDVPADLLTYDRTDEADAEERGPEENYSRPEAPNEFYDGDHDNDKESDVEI
Sequence (Q9Y618 whole entry, further chain, the tested form may be a part): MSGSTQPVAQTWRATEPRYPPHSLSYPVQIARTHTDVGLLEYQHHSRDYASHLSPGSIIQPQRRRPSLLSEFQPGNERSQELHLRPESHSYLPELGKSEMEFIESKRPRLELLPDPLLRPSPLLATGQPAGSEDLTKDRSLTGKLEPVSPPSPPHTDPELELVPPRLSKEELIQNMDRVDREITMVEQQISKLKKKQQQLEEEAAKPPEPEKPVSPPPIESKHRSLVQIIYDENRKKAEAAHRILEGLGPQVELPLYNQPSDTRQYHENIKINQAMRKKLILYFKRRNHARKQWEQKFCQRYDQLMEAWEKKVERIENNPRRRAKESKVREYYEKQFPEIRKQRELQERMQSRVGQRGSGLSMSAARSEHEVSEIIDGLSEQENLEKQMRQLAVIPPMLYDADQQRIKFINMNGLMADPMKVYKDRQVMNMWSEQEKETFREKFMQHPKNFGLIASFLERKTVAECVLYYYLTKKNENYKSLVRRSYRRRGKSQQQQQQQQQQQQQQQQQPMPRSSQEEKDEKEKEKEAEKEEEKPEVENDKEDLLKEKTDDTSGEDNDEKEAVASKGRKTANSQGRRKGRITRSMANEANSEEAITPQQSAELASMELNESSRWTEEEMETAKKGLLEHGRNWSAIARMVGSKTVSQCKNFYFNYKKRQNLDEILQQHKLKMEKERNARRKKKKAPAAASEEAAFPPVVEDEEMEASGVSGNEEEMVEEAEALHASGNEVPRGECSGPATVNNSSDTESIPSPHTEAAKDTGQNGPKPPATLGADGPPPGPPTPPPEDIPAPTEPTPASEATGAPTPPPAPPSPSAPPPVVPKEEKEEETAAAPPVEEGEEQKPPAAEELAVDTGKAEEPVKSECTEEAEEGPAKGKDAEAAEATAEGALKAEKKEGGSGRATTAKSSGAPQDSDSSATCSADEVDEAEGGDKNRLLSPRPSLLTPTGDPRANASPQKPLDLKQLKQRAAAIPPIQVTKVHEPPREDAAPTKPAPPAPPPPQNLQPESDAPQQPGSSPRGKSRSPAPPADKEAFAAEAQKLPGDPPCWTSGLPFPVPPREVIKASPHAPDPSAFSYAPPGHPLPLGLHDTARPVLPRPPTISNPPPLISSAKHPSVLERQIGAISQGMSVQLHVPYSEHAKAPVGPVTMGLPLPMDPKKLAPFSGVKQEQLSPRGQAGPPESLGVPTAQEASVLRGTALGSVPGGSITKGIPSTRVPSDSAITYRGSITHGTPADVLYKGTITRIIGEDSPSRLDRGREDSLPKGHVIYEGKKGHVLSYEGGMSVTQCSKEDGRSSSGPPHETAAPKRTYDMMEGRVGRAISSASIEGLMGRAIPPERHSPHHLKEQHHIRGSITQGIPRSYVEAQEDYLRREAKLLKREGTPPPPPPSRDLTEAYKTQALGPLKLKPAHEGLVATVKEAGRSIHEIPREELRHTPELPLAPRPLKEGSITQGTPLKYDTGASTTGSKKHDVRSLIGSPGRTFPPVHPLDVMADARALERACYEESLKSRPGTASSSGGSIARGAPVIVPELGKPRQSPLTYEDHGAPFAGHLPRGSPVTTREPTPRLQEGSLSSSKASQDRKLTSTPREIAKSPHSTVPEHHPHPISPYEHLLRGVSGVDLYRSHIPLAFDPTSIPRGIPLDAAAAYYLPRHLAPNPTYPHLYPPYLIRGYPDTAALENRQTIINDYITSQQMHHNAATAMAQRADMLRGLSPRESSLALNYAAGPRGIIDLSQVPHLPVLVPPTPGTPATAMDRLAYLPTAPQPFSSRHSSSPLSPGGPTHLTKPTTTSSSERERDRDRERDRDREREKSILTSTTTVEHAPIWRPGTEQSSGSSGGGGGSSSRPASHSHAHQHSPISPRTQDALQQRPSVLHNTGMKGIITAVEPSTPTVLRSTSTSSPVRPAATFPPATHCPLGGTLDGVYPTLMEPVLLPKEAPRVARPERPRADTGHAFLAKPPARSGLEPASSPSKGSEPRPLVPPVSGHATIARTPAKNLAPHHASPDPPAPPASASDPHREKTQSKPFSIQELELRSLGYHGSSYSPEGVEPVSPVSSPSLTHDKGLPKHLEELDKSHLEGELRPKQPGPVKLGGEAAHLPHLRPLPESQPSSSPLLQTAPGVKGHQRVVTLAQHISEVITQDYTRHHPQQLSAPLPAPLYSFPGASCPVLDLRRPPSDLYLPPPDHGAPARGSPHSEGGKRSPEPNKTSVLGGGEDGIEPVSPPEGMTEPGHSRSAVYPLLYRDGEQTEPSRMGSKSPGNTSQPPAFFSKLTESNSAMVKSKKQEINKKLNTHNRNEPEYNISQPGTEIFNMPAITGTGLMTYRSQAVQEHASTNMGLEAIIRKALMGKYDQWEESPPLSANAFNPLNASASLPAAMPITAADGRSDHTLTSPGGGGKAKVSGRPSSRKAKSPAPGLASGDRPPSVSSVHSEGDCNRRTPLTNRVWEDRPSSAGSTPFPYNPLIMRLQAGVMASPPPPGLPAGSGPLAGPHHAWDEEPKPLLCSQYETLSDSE
assay name: Inhibition of recombinant human C-terminal GST/His-tagged HDAC3 (1 to 428 residues) co-expressed with human N-terminal GST-tagged NCOR2 (395 to 489 residues) in baculovirus infected Sf9 cells using Boc-Lys(Ac)-AMC as substrate preincubated for 15 mins followed by substrate addition and measured after 60 mins by fluorometric method
property: pIC50
Numbers only, as −log10 of the molar value.

### Prompt State the recorded pIC50 for this entry: Cc1noc(C)c1-c1ccc2c(c1)c(Cc1ccc(F)cc1)cn2CCCCCCC(=O)NO
### Response 8.30

====

target under test: Sigma non-opioid intracellular receptor 1 (Cavia porcellus, UniProt Q60492)
Sequence (Q60492 whole entry): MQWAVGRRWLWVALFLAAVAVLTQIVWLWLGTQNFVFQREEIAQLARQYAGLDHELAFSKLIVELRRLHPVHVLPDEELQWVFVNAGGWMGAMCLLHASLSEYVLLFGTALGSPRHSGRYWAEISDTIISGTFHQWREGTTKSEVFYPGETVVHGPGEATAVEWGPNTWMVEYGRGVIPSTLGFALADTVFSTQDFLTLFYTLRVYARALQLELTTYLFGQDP
assay name: Displacement of (+)-[3H]pentazocine from sigma1 receptor in guinea pig brain membranes
property: Ki (nM)
Give bare numbers, in nM.

### Prompt Return Ki measured with Sigma non-opioid intracellular receptor 1 (Cavia porcellus, UniProt Q60492) given this molecule: COc1cc2c(cc1OC)CN(CCCCc1cn(-c3ccc(F)cc3)c3ccccc13)CC2
### Response 5.34

====

Tested on: HepG2
assay name: Antiproliferative activity against human HepG2 cells assessed as reduction in cell viability after 48 hrs by MTT assay
Assay type: functional, cell-based
test context: HepG2, 48 h
property: IC50 (nM)
Answers are plain numbers, in nM.

### Prompt State the recorded IC50 for this entry: COc1cc(C2=NN(C(N)=O)C(c3cn(C)c4ccc(Br)cc34)C2)cc(OC)c1OC (stereo unspecified)
### Response 310

This collection of values is drawn from ChEMBL document CHEMBL4342416.
